Test system: MS2 coat protein
Assay: apparent KD of MS2 coat protein; designed switch direction (-1 OFF switch, 1 ON switch): -1; higher = weaker reporter binding
Settings: input ligand: none
# apparent KD of MS2 coat protein annotations
Could you give me the number in µM? Just the number is fine.

Illustrative cases are given below, each with its answer.
residue-sequence	unit-tag	apparent KD of MS2 coat protein
CUUUUGUGAGGAUAUUAGUAGUAAAUAAAUAAAAUUAUUACUGAGAAGGUACAUGAGGAUCACCCAUGUUCCUU [Salish 062 v21] (Eterna round: R97, puzzle: Exclusion 4)	µM	0.0199
ACAUGAGGAUCACCCAUGUGCCCAUCUAGCACAUGUCCUCGCUAGGAUAUGUAGGCCUCGAGGCCGCAGAAGGAGCUAAAAGAG [Atgequa] (Eterna round: R96, puzzle: Exclusion NG 3)	µM	0.127
GGCGGACAUGAGGAUCACCCAUGUCAGGAUAUUAGGCGAUCGUCGAUAGACGAUAGCCUGAGAAGGGACGCGCC [Mat - Exclusion 1 - Eli Mod - D13] (Eterna round: R97, puzzle: Exclusion 1)	µM	0.0177

GET /values?readout=apparent KD of MS2 coat protein&item= GCGCCAUCGUGAGAUGGCGUAAUUACAUGAGGAUCACCCAUGUAGGAUAUCGAUUGCUUUGCAGUCGAGAAGGGCAUGUUUUGU [JL ENG3 3.85] (Eterna round: R96, puzzle: Exclusion NG 3) 0.0315

Could you do the same for GGUAAAGGCCGAGGAUAUCGGAAAGGAAGUGUACGAGAAGGCGGCAAAAGAACAUGAGGAUCACCCAUGUGGGCCGAUCUUCCG [16th something] (Eterna round: R96, puzzle: Exclusion NG 1) , please? 0.018

====

# apparent KD of MS2 coat protein annotations
Test system: MS2 coat protein
Experiment: apparent KD of MS2 coat protein; designed switch direction (-1 OFF switch, 1 ON switch): -1; higher = weaker reporter binding
Conditions: input ligand: FMN 200 uM
Could you give me the number in nM? Just the number is fine.

Illustrative cases are given below, each with its answer.
residue-sequence	apparent KD of MS2 coat protein, nM
CCACGACAUGAGGAUCACCCAUGUGAGGAUAUGGCCUGAAAAGCGUGAGCUGAAUCAAUCAGAAGGCGCGUGGG [salish99_ex1_r4_059_4A's] (Eterna round: R97, puzzle: Exclusion 1)	109
AGUCCAGACGGACCCUCUAACAUGAGGAUCACCCAUGUAGCGGAGGAUAUCCGAAUUUGGGCGACGGAGAAGGCCGUUGCAGGG [Edsosobi] (Eterna round: R96, puzzle: Exclusion NG 3)	21.3

GET /values?readout=apparent KD of MS2 coat protein&item= CGUAAGCUAGGAUAUGCUUUGGGAAAGCAUUCCUUCGAUAAACUUGAGGAUCACCCAAGUAGAAGGAGCUUACU [salish99_ex2_r4_011] (Eterna round: R97, puzzle: Exclusion 2) 19.5

Could you do the same for AUGUGACAUGAGGAUCACCCAUGUCAGGAUAUUUCCAAAAUAAAAUAAAACCGCGUGGAAAGAAGGGACGUGGC [EX1 A.4] (Eterna round: R97, puzzle: Exclusion 1) , please? 27.4

Could you do the same for AUGUUGCGAGGAUAUAUAAGGGUAUAUUAAUAAGAUAUGGAACAUGAGGAUCACCCAUGUAGAAGGUGCAUAAC [JR_Ex2_Sub041] (Eterna round: R97, puzzle: Exclusion 2) , please? 45.6
